Experiment: NCI Yeast Anticancer Drug Screen. Data for the mlh1 rad18 strain (AID 175)
Conditions: S. cerevisiae mlh1 rad18 strain growth inhibition; at 50.0 µM; hits give high values
Procedure: Growth inhibition of yeast strains with defined genetic alterations is measured as a screen for potential anti-cancer activity. Selected strains with alterations in DNA damage repair or cell cycle control were exposed to compounds and growth inhibition was measured relative to vehicle treated controls. The strain used in this assay is mlh1 rad18
About 79,000 compounds went through this panel and 15% of them were active in at least one assay; those are over-represented in the sample as a whole.
observable: growth inhibition (%)
Write the value in % as a bare number.

Query: Read off the recorded growth inhibition for Cc1ccc(C)c2nc3c(C)ccc(C)c3cc12
Result: 14.3

Query: Read off the recorded growth inhibition for COC(=O)CCc1nc2ccccc2c(=O)[nH]1
Result: -12.4

Query: Read off the recorded growth inhibition for COc1ccc2c(c1OC(C)=O)C1=CC(OC(C)=O)=CCC13CCN(C)C3C2 (stereo unspecified)
Result: -0.15

Query: Read off the recorded growth inhibition for Oc1cc(-n2cccn2)c(O)cc1-n1cccn1
Result: -39

Query: Read off the recorded growth inhibition for Cc1nc2ccc(S(=O)(=O)Nc3ccccc3Cl)cc2c(=O)n1NC(=O)CNc1ccccc1Cl
Result: 21.3

Query: Read off the recorded growth inhibition for CC(C)=CCC/C(C)=C/C=O
Result: 8.4

---

test: NCI Yeast Anticancer Drug Screen. Data for the rad50 strain (AID 155);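 further: 0% = growth of vehicle-only cultures of the same strain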; conditions: S. cerevisiae rad50 strain growth inhibition; at 50.0 µM
Compounds without any hit were thinned out: in the full panel of roughly 79,000, 15% have a hit. Calls of active or inactive are those of the source. No stated cut-off is given here; in the data, active means growth inhibition above about 70%; inactive means the rest.
In this exercise, the only acceptable responses are active, inactive

Query: # fetch the recorded call for NNC(=O)N/N=C(\CBr)c1ccc(Cl)cc1 here
Result: inactive

Query: # fetch the recorded call for Cc1c2ccccc2c(CN(C)CC(=O)NCC(=O)NCC(=O)O)c2ccccc12 here
Result: active

Query: # fetch the recorded call for CC(=O)N(C)c1ccc(Nc2cc(S(=O)(=O)O)c(N)c3c2C(=O)c2ccccc2C3=O)cc1 here
Result: inactive

Query: # fetch the recorded call for CCOC(=O)Cn1nnnc1N here
Result: inactive

Query: # fetch the recorded call for O=C1OC(=O)C2C1C1CCC2C1(c1ccccc1)c1ccccc1 (stereo unspecified) here
Result: inactive

Query: # fetch the recorded call for CC(C)(C)NC(=O)Oc1ccc(Br)cc1Br here
Result: inactive

Query: # fetch the recorded call for C[C@@H]1CC[C@@]2(C)C(C(=O)O)=CCCC2[C@@]1(C)CC(=O)c1ccoc1 (stereo partly specified) here
Result: inactive

Query: # fetch the recorded call for O=c1[nH]nc(-c2ccccc2)n1-c1ccncc1 here
Result: inactive

Query: # fetch the recorded call for O=Cc1[nH]c(=S)[nH]c(=O)c1Cc1cccc(Cl)c1 here
Result: inactive

Query: # fetch the recorded call for O=C(O)c1c[nH]c2cc(OCc3ccccc3)ccc2c1=O here
Result: inactive

Query: # fetch the recorded call for Cc1ccc(OC/C=N\N=C(N)N)cc1C here
Result: inactive

Query: # fetch the recorded call for CC1OC(OC23C(=O)CC(C)(O)CC2(O)C=CC2=C3C(=O)c3ccc(C4CC(OC5CCC(OC6CC(O)C(O)C(C)O6)C(C)O5)C(O)C(C)O4)c(O)c3C2=O)CCC1O (stereo unspecified) here
Result: inactive

Query: # fetch the recorded call for Cn1c(=Nc2ccc(Cl)cc2)sc2ccccc21 here
Result: inactive

Query: # fetch the recorded call for BrCCC1CCCCCC1 here
Result: inactive

Query: # fetch the recorded call for O=C(NC[N+]12CCO[B-]1(c1ccc(Cl)cc1)OCC2)c1ccccc1O (stereo unspecified) here
Result: inactive

Query: # fetch the recorded call for S=c1[nH]nc(COc2cccc3cccnc23)n1-c1ccccc1 here
Result: inactive

Query: # fetch the recorded call for Nc1cccc(CC(=O)c2ccccc2)n1 here
Result: inactive

Query: # fetch the recorded call for O=C(Nc1ccc2c(c1)C(O)c1ccccc1-2)C(F)(F)F (stereo unspecified) here
Result: inactive

Query: # fetch the recorded call for Nc1ccc(O)c(N)c1 here
Result: inactive

Query: # fetch the recorded call for CN(C)c1ccc(/C=C2\CCc3ccccc3C2=O)cc1Br here
Result: inactive

Query: # fetch the recorded call for O=C(/C(=C\c1ccc(Cl)cc1)c1ccccc1)c1ccccc1 here
Result: inactive

Query: # fetch the recorded call for CC(C)(C)c1ccc(C(=O)N2CCOC23CCCCC3)cc1 here
Result: inactive

Query: # fetch the recorded call for COc1nc(Cl)cc2nc(Cl)cn12 here
Result: inactive

Query: # fetch the recorded call for CC(=O)Nc1ccc(Cc2cc([N+](=O)[O-])cc([N+](=O)[O-])c2)cc1 here
Result: inactive

Query: # fetch the recorded call for CC1=NNC(=O)C1(C)C here
Result: inactive

Query: # fetch the recorded call for c1ccc(C[n+]2cccc3ccccc32)cc1 here
Result: inactive

Query: # fetch the recorded call for CC1=NN(c2ccccc2)C(=O)/C1=C(\[O-])c1ccccc1.CC1=NN(c2ccccc2)C(=O)/C1=C(\[O-])c1ccccc1.CC1=NN(c2ccccc2)C(=O)/C1=C(\[O-])c1ccccc1.[Fe+3] here
Result: inactive

Query: # fetch the recorded call for Cc1ccc(C(C)C)cc1OC(=O)NC1CCCCC1 here
Result: inactive

Query: # fetch the recorded call for O=c1[nH]c2cc([N+](=O)[O-])ccc2nc1/C(=N\Nc1ccccc1)C(O)c1ccc2c(c1)OCO2 (stereo unspecified) here
Result: inactive

Query: # fetch the recorded call for O=C(O)C1CCC(C(=O)O)S1 (stereo unspecified) here
Result: inactive

Query: # fetch the recorded call for COC(=O)/C=C(/C=C1/C(C#N)=C(N)N(c2ccc(Cl)cc2)C1(C)/C(=C/C(=O)OC)C(=O)OC)C(=O)OC (stereo unspecified) here
Result: inactive

Query: # fetch the recorded call for CSCCC(NC(=O)OCc1ccccc1)P(=O)(O)c1ccccc1 (stereo unspecified) here
Result: inactive

Query: # fetch the recorded call for CCCCCCCCCCCCNc1ncnc2c1cnn2C here
Result: inactive

Query: # fetch the recorded call for O=C(/C=C/c1ccccc1)CC(=O)c1ccccc1.O=C(/C=C/c1ccccc1)CC(=O)c1ccccc1.[Cu] here
Result: inactive

Query: # fetch the recorded call for Cc1ccc(NC(=O)C(C)S)cc1 (stereo unspecified) here
Result: inactive

Query: # fetch the recorded call for Nc1c(C(=O)Nc2cccc3c2C(=O)c2ccccc2C3=O)ccc2c1C(=O)c1ccccc1C2=O here
Result: inactive

Query: # fetch the recorded call for CCCCCCC(=O)/C=C/c1cccc(OCc2cccc(Cl)c2)c1 here
Result: inactive

Query: # fetch the recorded call for C=CCOC1OC(CS(=O)(=O)O)C(OC(C)=O)C(OC(C)=O)C1OC(C)=O (stereo unspecified) here
Result: inactive

Query: # fetch the recorded call for COC(=O)c1ccc(C[P+](c2ccccc2)(c2ccccc2)c2ccccc2)cc1 here
Result: inactive

Query: # fetch the recorded call for C=C(C)/C=N/NS(=O)(=O)c1ccc(C)cc1 here
Result: inactive

Query: # fetch the recorded call for NC(=S)CNC(=O)c1ccccc1 here
Result: inactive

Query: # fetch the recorded call for C1=Cc2ccccc2Nc2ccccc21 here
Result: inactive

Query: # fetch the recorded call for CCCCCCCCCCCCCCCCCCNC(=S)/N=C\C(C(=O)Nc1ccccc1C)=C(/C)O here
Result: inactive

Query: # fetch the recorded call for CCC(C)(O)Cc1ccccc1Cl (stereo unspecified) here
Result: inactive

Query: # fetch the recorded call for CC(C)(C)CNC(=S)Nc1ccccc1 here
Result: inactive

Query: # fetch the recorded call for COc1ccc2c(c1)OC(c1cccnc1)C(c1ccccc1)C2=O (stereo unspecified) here
Result: inactive
